// RBA lookup, one value per entry
Test system: Hydroxyapatite
Protocol Details: Binding affinity to hydroxyapatite at 10 nM by UV-spectroscopy relative to tetracycline
Reported Metric: RBA (%)

compound=C[C@]12CC[C@@H]3c4ccc(O)cc4CC[C@H]3[C@@H]1CC[C@@H]2O target=Hydroxyapatite experimental_result=0
compound=CCCCCCCCCCCCOP(=O)(OCCCCCCCCCCCC)Oc1ccc2c(c1)CC[C@@H]1[C@@H]2CC[C@]2(C)[C@@H](OCCC(=O)Nc3ccc(OC)c(C(N)=O)c3O)CC[C@@H]12 target=Hydroxyapatite experimental_result=160
compound=COc1ccc(NC(=O)CCO[C@H]2CC[C@H]3[C@@H]4CCc5cc(OP(=O)(OCC(C)C)OCC(C)C)ccc5[C@H]4CC[C@]23C)c(O)c1C(N)=O target=Hydroxyapatite experimental_result=180
compound=COc1ccc(NC(=O)CCO[C@H]2CC[C@H]3[C@@H]4CCc5cc(OP(=O)(OC(C)C)OC(C)C)ccc5[C@H]4CC[C@]23C)c(O)c1C(N)=O target=Hydroxyapatite experimental_result=200
compound=CN(C)[C@@H]1C(O)=C(C(N)=O)C(=O)[C@@]2(O)C(O)=C3C(=O)c4c(O)cccc4[C@@](C)(O)[C@H]3C[C@@H]12 target=Hydroxyapatite experimental_result=100
compound=COc1ccc(NC(=O)CCO[C@H]2CC[C@H]3[C@@H]4CCc5cc(OP(=O)(OCc6ccccc6)OCc6ccccc6)ccc5[C@H]4CC[C@]23C)c(O)c1C(N)=O target=Hydroxyapatite experimental_result=190
compound=CCCCOP(=O)(OCCCC)Oc1ccc2c(c1)CC[C@@H]1[C@@H]2CC[C@]2(C)[C@@H](OCCC(=O)Nc3ccc(OC)c(C(N)=O)c3O)CC[C@@H]12 target=Hydroxyapatite experimental_result=100
compound="CCCCC(CC)COP(=O)(OCC(CC)CCCC)Oc1ccc2c(c1)CC[C@@H]1[C@@H]2CC[C@]2(C)[C@@H](OCCC(=O)Nc3ccc(OC)c(C(N)=O)c3O)CC[C@@H]12 (stereo partly drawn)" target=Hydroxyapatite experimental_result=180
